- target or system: T1, HLA-DR13 (HLA-DRB1*13:01) (human)
- T1 construct: mature; purified from homozygous EBV-transformed lymphoblastoid cells with antibody L243
- procedure summary: competition ELISA vs biotin-B1 21-36
No end group written: not given here.
Overview of reported relative affinity across a group of binders:
Just the number, please, no unit attached.

{"columns": ["binder", "relative affinity"],
 "data": [
  ["ETMYMTVSIIDRFMQ-NH2 [CCNB1 221-235]", 59],
  ["DWLVQVQMKFRLLQE-NH2 [CCNB1 207-221]", 1]
]}

Attention now shifts to the item below.
Noted for VQMKFRLLQETMYMT-NH2 [CCNB1 212-226] : its relative affinity reads 1
